- tgt: HLA-DRB1*07:01 (Homo sapiens, UniProt P01903+P01911, A100R/A102G/A103Q/D57E/D86V/E43K/F76Y/K127E/L162R/M171V/P40G/Q125H/Q99D/R33Q/R42Y/R54Q/S133A/S66F/T210M/V115G/Y107V/Y59L/Y89S)
- assay_procedure: HLA binding assay, DRB1*07:01
- particulars: read-out: HLA-DRB1 (IC50) *0701
Where no end group is shown, it is not given here.
measured_property: IC50 (nM)
The reply should be a number in nM, with the unit left off.

(Q) # return recorded IC50 for input EKMVSLLSVLLSM [NSP7-289]
(A) 2680
